Test: Cmax in CD-1 mouse at 50 mg/kg, po measured upto 24 hrs by LC-MS/MS analysis
Assay type: ADME, organism-based
Design: time < 24 hrs, dose 50 mg/kg, route po
Settings: CD-1, mouse, in vivo, read-out: Cmax
TEST READOUT: Cmax
Please format your answer as a value with the unit trailing.

Exercise: Tell me measured Cmax for `CCn1cc(-c2cc(Cn3ccnc3)cc3c2CCN([C@H](c2cc(OC)ccn2)C2CC2)C3=O)c(C(F)(F)F)n1` please.
Key: 6.55 µg/mL

###

Test: Protein binding in mouse whole blood at 1 uM incubated for 4 hrs by LC-MS/MS based rapid equilibrium dialysis method
Type: ADME, tissue-based
TEST READOUT: PB (%)
Give the number; % is assumed, so skip it.

Exercise: Tell me measured PB for `CCc1cc(C(=O)NC)c2nccc(N3CCc4c(cc(Cn5ccnc5)cc4-c4cn(C)nc4C(F)(F)F)C3=O)c2c1` please.
Key: 99.6

Exercise: Tell me measured PB for `CCn1cc(-c2cc(Cn3ccnc3)cc3c2OCCN([C@H]2CCOc4ccc(OC)cc42)C3=O)c(C(F)(F)F)n1` please.
Key: 91.9

Exercise: Tell me measured PB for `CCn1cc(-c2cc(Cn3ccnc3C)cc3c2OCCN([C@H]2CCOc4ccc(OC)cc42)C3=O)c(C(F)(F)F)n1` please.
Key: 99.8

Exercise: Tell me measured PB for `COc1cnc2c(c1)[C@@H](N1CCOc3c(cc(Cn4ccnc4)cc3-c3cn(C)nc3C(F)(F)F)C1=O)CCC2` please.
Key: 94.2
